Recorded mass density, one value per entry.
settings: 322.15 K; 100 kPa; Liquid; Vibrating tube method
Answer in kg/m3, number only, no unit symbol.

The examples below pair each entry with its known result.
structure.smiles: CC[N+](C)(CCO)CCO.O=S(=O)([N-]S(=O)(=O)C(F)(F)F)C(F)(F)F
output.unit: kg/m3
result: 1493.7

structure.smiles: CC[N+](C)(C)CCOC.O=S(=O)([N-]S(=O)(=O)C(F)(F)F)C(F)(F)F
output.unit: kg/m3
result: 1408.6

structure.smiles: CC[N+](C)(C)CCCO.O=S(=O)([N-]S(=O)(=O)C(F)(F)F)C(F)(F)F
output.unit: kg/m3
result: 1442.5

structure.smiles: CCCC[N+](C)(C)CC.O=S(=O)([N-]S(=O)(=O)C(F)(F)F)C(F)(F)F
output.unit: kg/m3
result: 1350.6

structure.smiles: CCCC[N+](CCO)(CCO)CCO.O=S(=O)([N-]S(=O)(=O)C(F)(F)F)C(F)(F)F
output.unit: kg/m3
result: 1435.8

structure.smiles: CC[N+](CCO)(CCO)CCO.O=S(=O)([N-]S(=O)(=O)C(F)(F)F)C(F)(F)F
output.unit: kg/m3
result: 1508.7

API: the following record is the query input.
Prompt: Which mass density reading was recorded for the molecule C[N+](CCO)(CCO)CCO.O=S(=O)([N-]S(=O)(=O)C(F)(F)F)C(F)(F)F ?
Response: 1545.2
